B1: SH3BP2 peptide 410-425 (SH3 domain-binding protein 2), 16-mer library wild type / TNKS ANK (TNKS 12 ANK repeats, residues 174-649) (parent)
chain 1: LPHLQRSPPDGQSFRS
chain 2: TGVPAVSGALRELLEACRNGDVSRVKRLVDAANVNAKDMAGRKSSPLHFAAGFGRKDVVEHLLQMGANVHARDDGGLIPLHNACSFGHAEVVSLLLCQGADPNARDNWNYTPLHEAAIKGKIDVCIVLLQHGADPNIRNTDGKSALDLADPSAKAVLTGEYKKDELLEAARSGNEEKLMALLTPLNVNCHASDGRKSTPLHLAAGYNRVRIVQLLLQHGADVHAKDKGGLVPLHNACSYGHYEVTELLLKHGACVNAMDLWQFTPLHEAASKNRVEVCSLLLSHGADPTLVNCHGKSAVDMAPTPELRERLTYEFKGHSLLQAAREADLAKVKKTLALEIINFKQPQSHETALHCAVASLHPKRKQVTELLLRKGANVNEKNKDFMTPLHVAAERAHNDVMEVLHKHGAKMNALDTLGQTALHRAALAGHLQTCRLLLSYGSDPSIISLQGFTAAQMGNEAVQQILSESTPIRTSD

variants of: B1; assay: proteomic peptide phage display deep mutational scan (ProP-PD DMS): M13 P8 16-mer library selected against immobilised GST-tagged bait for four days (rounds), NGS of the eluted pools per day and pseudo-replica; details: with TNKS ANK (TNKS 12 ANK repeats, residues 174-649); bait immobilised on MaxiSorp plates (10 µg), library pre-cleared on GST, 2 h binding at 4 °C, five washes; one round per day, days 1-4; value from days 2 and 3; keep out of graded; scale: average fractional NGS count over selection days 2 and 3
MEASURE_NAME: screen value

These solved cases illustrate the format of a correct answer.
MUTATIONS | screen value
chain 1 H3K | 5.51e-05
chain 1 S7R | 8.27e-05
chain 1 P8F | 0.000116

Report screen value for each item below.
1. chain 1 D10N
2. chain 1 S7A
3. chain 1 P9I
4. chain 1 L4K
5. chain 1 P8W
6. chain 1 Q12D
7. chain 1 P2Y

1: 0; 2: 8.68e-05; 3: 4.06e-05; 4: 3.15e-05; 5: 7.62e-05; 6: 6.89e-05; 7: 4.27e-05

Looking for the measured screen value of chain 1 L4R , can you help? 2.25e-05
